assayed.system: human GSK3β (Homo sapiens, UniProt P49841)
Sequence (P49841 whole entry): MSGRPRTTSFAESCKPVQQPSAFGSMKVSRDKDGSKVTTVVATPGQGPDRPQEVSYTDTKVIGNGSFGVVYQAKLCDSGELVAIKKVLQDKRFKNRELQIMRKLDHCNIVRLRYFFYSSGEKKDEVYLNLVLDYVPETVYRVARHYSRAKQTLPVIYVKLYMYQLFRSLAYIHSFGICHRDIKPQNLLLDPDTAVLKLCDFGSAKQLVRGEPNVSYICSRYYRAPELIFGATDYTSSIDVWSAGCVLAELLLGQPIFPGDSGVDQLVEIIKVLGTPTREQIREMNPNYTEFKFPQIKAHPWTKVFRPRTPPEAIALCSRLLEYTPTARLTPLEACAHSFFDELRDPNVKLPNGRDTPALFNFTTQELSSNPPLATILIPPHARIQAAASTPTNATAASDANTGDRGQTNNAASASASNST
assay.summary: Screening for GSK3 inhibitory activity using a cell-free assay
Format: biochemical
stated.conditions: read-out: IC50 with respect to GSK3
pIC50: −log10 of the molar value.

| molecule | pIC50 |
| --- | --- |
| Cc1c[nH]c(-c2cnc(NCCNc3ccc([N+](=O)[O-])c(N)n3)nc2-c2ccc(Cl)cc2Cl)n1 | ≥ 6.00 |
| CCOC(=O)c1c(CC)nc(NCCNc2ccccn2)nc1-c1ccc(C(N)=O)cc1 | ≥ 5.00 |
| Nc1nc(NCCNc2ncc(CN3CCOCC3)c(-c3ccc(Cl)cc3Cl)n2)ccc1[N+](=O)[O-] | ≥ 6.00 |
| CCOC(=O)c1cnc(NCCNc2ccc([N+](=O)[O-])cn2)nc1-c1ccc(N2CCOCC2)cc1 | ≥ 6.00 |
| N#Cc1cnc(NCCNc2ccc([N+](=O)[O-])c(N)n2)nc1-c1ccc(Cl)c(Cl)c1 | ≥ 5.00 |
| CCOC(=O)c1cnc(NCCNc2ccc([N+](=O)[O-])cn2)nc1-c1ccncc1 | ≥ 6.00 |
| CCOC(=O)c1cnc(NCCNc2ccc([N+](=O)[O-])cn2)nc1-c1ccc(Cl)cc1 | ≥ 6.00 |
| CN(C)CCN(CCNc1ccc([N+](=O)[O-])cn1)c1ncc(-n2ccnc2)c(-c2ccc(Cl)cc2Cl)n1 | ≥ 6.00 |
| COC(=O)c1cnc(NCCNc2ccc([N+](=O)[O-])cn2)nc1-c1ccc(C#N)cc1 | ≥ 6.00 |
| O=C(O)c1c(-c2ccc([N+](=O)[O-])cc2)nc(NCCNc2ccc([N+](=O)[O-])cn2)nc1C1CCCCC1 | ≥ 5.00 |
| N#Cc1ccc(-c2nc(NCCNc3ccc([N+](=O)[O-])cn3)ncc2C(=O)OCc2ccccc2)cc1 | ≥ 6.00 |
| CCOC(=O)c1cnc(NCCNc2ccc([N+](=O)[O-])cn2)nc1-c1ccc(-c2ccccc2)cc1 | ≥ 5.00 |
| Clc1ccc(-c2ccnc(NCCNc3ccccn3)n2)c(Cl)c1 | ≥ 5.00 |
| CN(C)CCCCOC(=O)c1cnc(NCCNc2ccc([N+](=O)[O-])cn2)nc1-c1ccc(C#N)cc1 | ≥ 6.00 |
| O=[N+]([O-])c1ccc(NCCNc2ncc(-c3ncc[nH]3)c(-c3ccc(Br)cc3Cl)n2)nc1 | ≥ 6.00 |
| N#Cc1ccc(-c2nc(NCCNc3ccc([N+](=O)[O-])cn3)ncc2C(=O)OCCN(CCO)CCO)cc1 | ≥ 6.00 |
| COc1cccc(-c2cccc(CNc3nccc(-c4ccc(C(N)=O)cc4)n3)c2)c1 | ≥ 5.00 |
| c1ccc(-c2ccnc(NCCc3ccccn3)n2)cc1 | ≥ 5.00 |
| Nc1nc(NCCNc2ncc(N3C(=O)c4cccnc4C3=O)c(-c3ccc(Cl)cc3Cl)n2)ccc1[N+](=O)[O-] | ≥ 6.00 |
| O=[N+]([O-])c1ccc(NCCNc2nccc(NCc3cccc(Cl)c3)n2)nc1 | ≥ 5.00 |
| CCOC(=O)c1cnc(NCCc2ccccn2)nc1-c1cccc([N+](=O)[O-])c1 | ≥ 5.00 |
| O=C(O)c1c(-c2ccncc2)nc(NCCNc2ccc([N+](=O)[O-])cn2)nc1-c1ccc([N+](=O)[O-])cc1 | ≥ 5.00 |
| O=[N+]([O-])c1ccc(NCCNc2ccc(-n3ccnc3)c(-c3ccc(Cl)cc3Cl)n2)nc1 | ≥ 6.00 |
| N#Cc1ccc(-c2nc(NCCNc3ccc([N+](=O)[O-])cn3)ncc2C(=O)NCCO)cc1 | ≥ 6.00 |
| O=C(NC1CC1c1ccccc1)c1ccc(-c2ccnc(NCCNc3ccc([N+](=O)[O-])cn3)n2)cc1 (stereo not shown) | ≥ 5.00 |
| CCc1ccc(-c2nc(NCCNc3ccc(C#N)cn3)ccc2N2CCN(C)CC2=O)cc1 | ≥ 5.00 |
| COc1cccc(OCCCNc2nccc(-c3ccc(C(N)=O)cc3)n2)c1 | ≥ 5.00 |
| N#Cc1cnc(NCCNc2nccc(-c3ccc(C(=O)NCc4cccc(Br)c4)cc3)n2)nc1N | ≥ 6.00 |
| NC(=O)c1ccc(-c2ccnc(NCCc3ccc([N+](=O)[O-])cc3)n2)cc1 | ≥ 5.00 |
| CCc1cnc(NCCNc2ccc([N+](=O)[O-])cn2)nc1-c1ccc(Cl)cc1Cl | ≥ 6.00 |
| O=[N+]([O-])c1ccc(NCCNc2nccc(-c3ccc(N4CCOCC4)cc3)n2)nc1 | ≥ 6.00 |
| COc1ccc(OC)c(CCNc2nccc(-c3ccc(C(=O)NCc4cccc(Br)c4)cc3)n2)c1 | ≥ 5.00 |
| CCOC(=O)c1cnc(NCCNc2cc(C)c([N+](=O)[O-])cn2)nc1-c1ccc(C#N)cc1 | ≥ 6.00 |
| CCOC(=O)c1cnc(NCCNc2ccc([N+](=O)[O-])cn2)nc1-c1ccc(Br)cc1 | ≥ 6.00 |
| CCc1cnc(NCCNc2ccccn2)nc1-c1ccccc1 | ≥ 5.00 |
| CCOC(=O)c1cnc(NCCNc2ccc([N+](=O)[O-])cn2)nc1NCc1ccc(C#N)cc1 | ≥ 6.00 |
| NC(=O)c1ccc(-c2ccnc(NCc3cccc(Cl)c3)n2)cc1 | ≥ 5.00 |

Data provenance: patent US7425557B2
